# test name: clinical
# measurement conditions: both, human, plasma, oral, 25 mg
observation type: AUC(0-inf) (ng·h/mL)
Give your result in ng·h/mL as a bare value.

IN: Please report the recorded AUC(0-inf) for O=C(O)[C@@H]1OCCc2ccsc21 .
OUT: 613
